Would you kindly list viability, T/C for each of these compounds?
Test system: NCI/ADR-RES complex spheroid viability
Assay: Anticancer human tumor NCI/ADR-RES cell line growth inhibition
Conditions: second compound 10 µM; first compound 0.3 µM; stronger effect = lower value
One number for each entry, in %.

# count of solved cases: 3
{"columns": ["COMPOUND", "TESTED SYSTEM", "MEAS VALUE"],
 "data": [
  ["Nc1ncn(C2CC(O)C(CO)S2)c(=O)n1 (centres undefined) + NC1CC1c1ccc(-c2cccc(O)c2)cc1", "NCI/ADR-RES complex spheroid viability", 3.24],
  ["NS(=O)(=O)OCC1CC(n2ccc3c(NC4CCc5ccccc54)ncnc32)CC1O (centres undefined) + NC1CC1c1ccc(-c2cccc(O)c2)cc1", "NCI/ADR-RES complex spheroid viability", 75.1],
  ["COc1cc(C2c3cc4c(cc3C(OC3OC5COC(C)OC5C(O)C3O)C3COC(=O)C23)OCO4)cc(OC)c1O (centres undefined) + NC1CCC(NC2CC2c2ccccc2)CC1", "NCI/ADR-RES complex spheroid viability", 90.3]
]}

Prompt line: Report viability, T/C for Nc1ncn(C2CC(O)C(CO)S2)c(=O)n1 (centres undefined) + NC1CCC(NC2CC2c2ccccc2)CC1
Response line: 3.33

====

Test system: NCI/ADR-RES complex spheroid viability
Test: Anticancer human tumor NCI/ADR-RES cell line growth inhibition; active = viability on the fitted dose curve at most 10% of control; inactive = the rest;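 further: spheroids exposed to compounds for 7 days; 100% = DMSO vehicle treated spheroids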
Conditions: second compound 1 µM; first compound 1 µM
Use one of these outcomes when replying: TRUE for active, FALSE for inactive

{"columns": ["COMPOUND", "TESTED SYSTEM", "DISCRETE LABEL"],
 "data": [
  ["CC(C)c1c(-c2ccccc2)nc2c(C#N)c[nH]n2c1=O + NC1CCC(NC2CC2c2ccccc2)CC1", "NCI/ADR-RES complex spheroid viability", "FALSE"],
  ["O=C(c1cc(Cc2n[nH]c(=O)c3ccccc23)ccc1F)N1CCN(C(=O)C2CC2)CC1 + NC1CCC(NC2CC2c2ccccc2)CC1", "NCI/ADR-RES complex spheroid viability", "FALSE"],
  ["Nc1ncn(C2CC(O)C(CO)O2)c(=O)n1 (configuration not stated) + NC1CCC(NC2CC2c2ccccc2)CC1", "NCI/ADR-RES complex spheroid viability", "FALSE"],
  ["COc1ccc([C@@H](O)c2cc(-c3ncnc4cc(N5CCOCC5)ccc34)c(F)cc2Cl)nn1 + NC1CC1c1ccc(-c2cccc(O)c2)cc1", "NCI/ADR-RES complex spheroid viability", "FALSE"],
  ["COc1cc(Nc2ncc3c(n2)-c2ccc(Cl)cc2C(c2c(F)cccc2OC)=NC3)ccc1C(=O)O + NC1CC1c1ccc(-c2cccc(O)c2)cc1", "NCI/ADR-RES complex spheroid viability", "FALSE"]
]}

Proceed to the following item.
Prompt line: Per the records of this test, what outcome belongs to CC1COCCN1c1cc(-c2ccnn2C)c2ccnc(-c3ccn[nH]3)c2n1 (configuration not stated) + NC1CC1c1ccc(-c2cccc(O)c2)cc1 ?
Response line: TRUE

====

Tested on: NCI/ADR-RES complex spheroid viability
Assay: Anticancer human tumor NCI/ADR-RES cell line growth inhibition; active = viability on the fitted dose curve at most 10% of control; inactive = the rest;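 further: spheroids exposed to compounds for 7 days; 100% = DMSO vehicle treated spheroids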
Details: second compound 10 µM; first compound 0.949 µM
Use one of these outcomes when replying: yes (active), no (inactive)

{"columns": ["COMPOUND", "TESTED SYSTEM", "DISCRETE LABEL"],
 "data": [
  ["NS(=O)(=O)OCC1CC(n2ccc3c(NC4CCc5ccccc54)ncnc32)CC1O (configuration not stated) + NC1CCC(NC2CC2c2ccccc2)CC1", "NCI/ADR-RES complex spheroid viability", "no"]
]}

Prompt line: Per the records of this test, what outcome belongs to Nc1ccccc1NC(=O)c1ccc(CNC(=O)OCc2cccnc2)cc1 + NC1CC1c1ccc(-c2cccc(O)c2)cc1 ?
Response line: no

Prompt line: Per the records of this test, what outcome belongs to O=C(C=Cc1cccc(S(=O)(=O)Nc2ccccc2)c1)NO + NC1CC1c1ccc(-c2cccc(O)c2)cc1 ?
Response line: no

Prompt line: Per the records of this test, what outcome belongs to Nc1ccccc1NC(=O)c1ccc(CNC(=O)OCc2cccnc2)cc1 + NC1CCC(NC2CC2c2ccccc2)CC1 ?
Response line: no

Prompt line: Per the records of this test, what outcome belongs to O=C(C=Cc1cccc(S(=O)(=O)Nc2ccccc2)c1)NO + NC1CCC(NC2CC2c2ccccc2)CC1 ?
Response line: yes

Prompt line: Per the records of this test, what outcome belongs to NS(=O)(=O)OCC1CC(n2ccc3c(NC4CCc5ccccc54)ncnc32)CC1O (configuration not stated) + NC1CC1c1ccc(-c2cccc(O)c2)cc1 ?
Response line: no

Prompt line: Per the records of this test, what outcome belongs to COc1cc(C2c3cc4c(cc3C(OC3OC5COC(C)OC5C(O)C3O)C3COC(=O)C23)OCO4)cc(OC)c1O (configuration not stated) + NC1CC1c1ccc(-c2cccc(O)c2)cc1 ?
Response line: no

====

Test system: NCI/ADR-RES complex spheroid viability
Test: Anticancer human tumor NCI/ADR-RES cell line growth inhibition;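 further: spheroids exposed to compounds for 7 days; 100% = DMSO vehicle treated spheroids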
Settings: second compound 3.16 µM; first compound 0.1 µM; stronger effect = lower value
From the text: Multicellular complex tumor spheroid response to LSD1 Inhibitor Iadademstat in combination with a variety of drugs and investigational agents in selected tumor cell lines The current study was undertaken to assess response to LSD1 inhibitors in combination with standard-of-care drugs and investigational agents in solid tumor complex spheroid models as well as in the K-562 leukemia. […] Compounds. […] If the clinical Cmax for an agent had not been determined, the highest concentration tested was 10 microM. […]
MEASURED QUANTITY: viability, T/C

# count of solved cases: 5
{"columns": ["COMPOUND", "MEASURED QUANTITY", "MEAS VALUE"],
 "data": [
  ["CC(C)CC(NC(=O)C(Cc1ccccc1)NC(=O)c1cnccn1)B(O)O (configuration not stated) + NC1CCC(NC2CC2c2ccccc2)CC1", "viability, T/C", "0.14%"],
  ["CC(C)CC(NC(=O)C(Cc1ccccc1)NC(=O)c1cnccn1)B(O)O (configuration not stated) + NC1CC1c1ccc(-c2cccc(O)c2)cc1", "viability, T/C", "0.23%"],
  ["CC1COCCN1c1cc(C2(S(C)(=N)=O)CC2)nc(-c2ccnc3[nH]ccc23)n1 (configuration not stated) + NC1CC1c1ccc(-c2cccc(O)c2)cc1", "viability, T/C", "95.1%"],
  ["CC(C)c1c(-c2ccccc2)nc2c(C#N)c[nH]n2c1=O + NC1CC1c1ccc(-c2cccc(O)c2)cc1", "viability, T/C", "108%"],
  ["COc1ccc([C@@H](O)c2cc(-c3ncnc4cc(N5CCOCC5)ccc34)c(F)cc2Cl)nn1 + NC1CCC(NC2CC2c2ccccc2)CC1", "viability, T/C", "105%"]
]}

Report viability, T/C for each item below.
1. CC1(C)CCC(CN2CCN(c3ccc(C(=O)NS(=O)(=O)c4ccc(NCC5CCOCC5)c([N+](=O)[O-])c4)c(Oc4cnc5[nH]ccc5c4)c3)CC2)=C(c2ccc(Cl)cc2)C1 + NC1CCC(NC2CC2c2ccccc2)CC1
2. CC[C@@]1(O)C(=O)OCc2c1cc1n(c2=O)Cc2cc3c(CN(C)C)c(O)ccc3nc2-1 + NC1CC1c1ccc(-c2cccc(O)c2)cc1

Response line:
1. 104%
2. 4.48%

====

Tested on: NCI/ADR-RES complex spheroid viability
Test: Anticancer human tumor NCI/ADR-RES cell line growth inhibition;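 further: spheroids exposed to compounds for 7 days; 100% = DMSO vehicle treated spheroids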
Details: second compound 1 µM; first compound 0.1 µM; stronger effect = lower value
Would you kindly list viability, T/C for each of these compounds?
Numbers only, in %.

# count of solved cases: 4
{"columns": ["COMPOUND", "MEASURED QUANTITY", "MEAS VALUE"],
 "data": [
  ["CC1COCCN1c1cc(C2(S(C)(=N)=O)CC2)nc(-c2ccnc3[nH]ccc23)n1 (stereo not given) + NC1CC1c1ccc(-c2cccc(O)c2)cc1", "viability, T/C", 97.4],
  ["COc1ccc([C@@H](O)c2cc(-c3ncnc4cc(N5CCOCC5)ccc34)c(F)cc2Cl)nn1 + NC1CCC(NC2CC2c2ccccc2)CC1", "viability, T/C", 97.8],
  ["O=C(c1cc(Cc2n[nH]c(=O)c3ccccc23)ccc1F)N1CCN(C(=O)C2CC2)CC1 + NC1CCC(NC2CC2c2ccccc2)CC1", "viability, T/C", 108],
  ["CC[C@@]1(O)C(=O)OCc2c1cc1n(c2=O)Cc2cc3c(CN(C)C)c(O)ccc3nc2-1 + NC1CCC(NC2CC2c2ccccc2)CC1", "viability, T/C", 2.63]
]}

Prompt line: Report viability, T/C for COc1ccc([C@@H](O)c2cc(-c3ncnc4cc(N5CCOCC5)ccc34)c(F)cc2Cl)nn1 + NC1CC1c1ccc(-c2cccc(O)c2)cc1
Response line: 99.1
